- system tested: T1, recombinant human CD14 (B294801, histidine tagged) (Homo sapiens, UniProt P08571)
- T1 construct: His; purchased Shanghai BaiYing Biotechnology Co., Ltd B294801 (Batch number 20200518A22)
- T1 sequence (P08571 20-345): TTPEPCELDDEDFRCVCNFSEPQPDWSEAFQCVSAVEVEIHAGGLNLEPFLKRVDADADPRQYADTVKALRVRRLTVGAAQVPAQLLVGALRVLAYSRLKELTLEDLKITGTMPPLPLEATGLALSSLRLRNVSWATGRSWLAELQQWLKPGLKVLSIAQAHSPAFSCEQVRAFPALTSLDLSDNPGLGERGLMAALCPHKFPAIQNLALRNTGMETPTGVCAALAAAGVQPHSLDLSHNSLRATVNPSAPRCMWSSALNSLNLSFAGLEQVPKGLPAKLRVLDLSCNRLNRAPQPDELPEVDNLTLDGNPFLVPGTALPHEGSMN
- protocol details: Biacore 8K kinetic and affinity test of humanized antibodies (Example 8)
- Type: binding
- condition context: relative to mouse antibody D6DD3D001
readout: Change Factor (ratio of KD of the humanized to mouse antibody)
# answer = number (no unit)

Consider the following illustrative entries.
| molecule | experimental value |
| --- | --- |
| D6DD3D015: humanized anti-CD14 antibody; VH SEQ ID NO: 57, VL SEQ ID NO: 59 (antibody, V domains shown) VH: QVQLQESGPGLVKPSETLSLTCTVSGYSITSDSAWNWIRQPPGKGLEWIGYISYSGSTSYNPSLKSRVTISRDTSKNQFSLKLSSVTAADTAVYYCVRGLRFAYWGQGTLVTVSS VL: DIQLTQSPSSLSASVGDRVTITCRASESVDSYVNSFLHWYQQKPGKAPKLLIYRASNLQSGVPSRFSGSGSRTDFTLTISSLQPEDVATYYCQQSNEDPYTFGQGTKLEIK | 1.10 |
| D6DD3D003: humanized anti-CD14 antibody; VH SEQ ID NO: 9, VL SEQ ID NO: 11 (antibody, V domains shown) VH: QVQLQESGPGLVKPSETLSLTCTVSGGSISSDSAWNWIRQPPGKGLEWIGYISYSGSTSYNPSLKSRVTISRDTSKNQFSLKLSSVTAADTAVYYCVRGLRFAYWGQGTLVTVSS VL: EIVLTQSPATLSLSPGERATLSCRASESVDSYVNSFLHWYQQKPGQAPRLLIYRASNLQSGIPARFSGSGSRTDFTLTISSLEPEDVAVYYCQQSNEDPYTFGQGTKLEIK | 3.34 |
| D6DD3D009: humanized anti-CD14 antibody; VH SEQ ID NO: 33, VL SEQ ID NO: 35 (antibody, V domains shown) VH: QLQLQESGPGLVKPSETLSLTCTVSGGSISSDSAWNWIRQPPGKGLEWIGYISYSGSTSYNPSLKSRVTISRDTSKNQFSLKLSSVTAADTAVYYCVRGLRFAYWGQGTLVTVSS VL: DIVLTQSPDSLAVSLGERATINCRASESVDSYVNSFLHWYQQKPGQPPKLLIYRASNLQSGVPDRFSGSGSRTDFTLTISSLQAEDVAVYYCQQSNEDPYTFGQGTKLEIK | 3.90 |
| D6DD3D014: humanized anti-CD14 antibody; VH SEQ ID NO: 53, VL SEQ ID NO: 55 (antibody, V domains shown) VH: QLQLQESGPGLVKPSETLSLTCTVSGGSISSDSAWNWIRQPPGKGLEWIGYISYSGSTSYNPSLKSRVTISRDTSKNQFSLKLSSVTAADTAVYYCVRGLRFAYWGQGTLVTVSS VL: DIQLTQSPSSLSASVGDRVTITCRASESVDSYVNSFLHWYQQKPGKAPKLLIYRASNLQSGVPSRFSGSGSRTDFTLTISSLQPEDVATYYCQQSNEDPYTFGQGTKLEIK | 3.71 |
| D6DD3D008: humanized anti-CD14 antibody; VH SEQ ID NO: 29, VL SEQ ID NO: 31 (antibody, V domains shown) VH: QVQLQESGPGLVKPSETLSLTCTVSGGSISSDSAWNWIRQPPGKGLEWIGYISYSGSTSYNPSLKSRVTISRDTSKNQFSLKLSSVTAADTAVYYCVRGLRFAYWGQGTLVTVSS VL: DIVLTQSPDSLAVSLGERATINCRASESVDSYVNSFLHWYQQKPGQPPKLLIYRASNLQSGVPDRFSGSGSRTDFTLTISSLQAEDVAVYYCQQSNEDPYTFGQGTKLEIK | 3.24 |
| D6DD3D016: humanized anti-CD14 antibody; VH SEQ ID NO: 61, VL SEQ ID NO: 63 (antibody, V domains shown) VH: QVQLQESGPGLVKPSQTLSLTCTVSGYSITSDSAWNWIRQPPGKGLEWIGYISYSGSTSYNPSLKSRVTISRDTSKNQFSLKLSSVTAADTAVYYCVRGLRFAYWGQGTLVTVSS VL: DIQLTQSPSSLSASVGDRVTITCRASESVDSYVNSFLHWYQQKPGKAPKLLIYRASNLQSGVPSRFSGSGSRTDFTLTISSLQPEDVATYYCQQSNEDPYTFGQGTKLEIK | 1.39 |

Request the reported Change Factor (ratio of KD of the humanized to mouse antibody) associated with D6DD3D005: humanized anti-CD14 antibody; VH SEQ ID NO: 17, VL SEQ ID NO: 19 (antibody, V domains shown) VH: QVQLQESGPGLVKPSETLSLTCTVSGYSITSDSAWNWIRQPPGKGLEWIGYISYSGSTSYNPSLKSRVTISRDTSKNQFSLKLSSVTAADTAVYYCVRGLRFAYWGQGTLVTVSS VL: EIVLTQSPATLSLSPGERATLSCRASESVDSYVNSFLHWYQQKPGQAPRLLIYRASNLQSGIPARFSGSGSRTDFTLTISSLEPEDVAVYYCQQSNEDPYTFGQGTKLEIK
1.09

Name the reported Change Factor (ratio of KD of the humanized to mouse antibody) value associated with the molecule D6DD3D011: humanized anti-CD14 antibody; VH SEQ ID NO: 41, VL SEQ ID NO: 43 (antibody, V domains shown) VH: QVQLQESGPGLVKPSQTLSLTCTVSGYSITSDSAWNWIRQPPGKGLEWIGYISYSGSTSYNPSLKSRVTISRDTSKNQFSLKLSSVTAADTAVYYCVRGLRFAYWGQGTLVTVSS VL: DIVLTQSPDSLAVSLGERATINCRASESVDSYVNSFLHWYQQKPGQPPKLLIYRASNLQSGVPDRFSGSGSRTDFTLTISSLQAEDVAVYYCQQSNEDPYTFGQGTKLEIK
1.32

Which measured Change Factor (ratio of KD of the humanized to mouse antibody) value corresponds to D6DD3D013: humanized anti-CD14 antibody; VH SEQ ID NO: 49, VL SEQ ID NO: 51 (antibody, V domains shown) VH: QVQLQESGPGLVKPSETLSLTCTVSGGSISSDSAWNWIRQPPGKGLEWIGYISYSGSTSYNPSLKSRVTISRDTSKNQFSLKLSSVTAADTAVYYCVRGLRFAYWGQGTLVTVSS VL: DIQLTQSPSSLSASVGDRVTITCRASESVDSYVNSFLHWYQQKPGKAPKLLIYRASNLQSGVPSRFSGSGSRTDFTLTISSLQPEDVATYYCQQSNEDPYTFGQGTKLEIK ?
3.32
